For each of the compounds below, state its IC50.
- target: Renin (Homo sapiens)
- Sequence (P00797 whole entry): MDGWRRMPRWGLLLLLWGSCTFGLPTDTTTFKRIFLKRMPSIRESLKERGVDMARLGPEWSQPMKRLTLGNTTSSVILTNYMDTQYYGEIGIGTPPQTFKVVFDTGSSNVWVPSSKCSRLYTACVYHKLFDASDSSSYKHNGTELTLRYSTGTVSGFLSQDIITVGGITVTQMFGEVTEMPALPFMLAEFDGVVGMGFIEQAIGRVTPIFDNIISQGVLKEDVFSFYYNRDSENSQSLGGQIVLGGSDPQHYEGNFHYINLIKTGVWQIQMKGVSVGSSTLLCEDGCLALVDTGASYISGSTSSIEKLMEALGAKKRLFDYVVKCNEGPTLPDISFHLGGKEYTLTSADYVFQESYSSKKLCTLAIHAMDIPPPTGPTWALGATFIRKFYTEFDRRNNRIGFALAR

• O=C(c1c(Oc2ccccc2)n(-c2ccccc2)c2cc(Cl)ccc12)N1CCNCC1 = 537 nM

Given item Cc1ccc(F)cc1Oc1c(C(=O)N2CCNCC2)c2ccccc2n1[C@H]1C=CCCC1 , the value recorded as its IC50 is 6.46 nM

====

- method_description: physchem
- experimental_conditions: octanol/buffer
For each of the compounds below, state its logP.

Sample records with logP:
• CC(C)(C)OCC(=O)NCCc1ccc(Cl)c(CN(C(=O)[C@H]2CNCC(=O)N2c2ccc(CCCOc3c(F)ccc(F)c3F)cc2)C2CC2)c1 = 6.28
• O=C(OCc1ccc(N2C(=O)CNC[C@@H]2C(=O)N(Cc2cc(CCNCC(F)F)ccc2Cl)C2CC2)cc1)c1ccccc1 = 5.05
• CC(=O)NCCc1ccc(Cl)c(CN(C(=O)[C@H]2CNCC(=O)N2c2ccc(CCCOc3c(F)ccc(F)c3F)cc2)C2CC2)c1 = 5.28

Consider now this further compound.
Given item CCC(=O)NCc1ccc(Cl)c(CN(C(=O)[C@H]2CNCC(=O)N2c2ccc(COC(=O)c3ccccc3)cc2)C2CC2)c1 , the value recorded as its logP is 4.67

====

For each of the compounds below, state its logP.
- method_description: physchem
- experimental_conditions: octanol/buffer
One number for each entry.

Sample records with logP:
* O=C([C@H]1CNCC(=O)N1c1ccc(OCCCOCc2ccccc2)cc1)N(Cc1cc(CNCCF)ccc1Cl)C1CC1 | 5.04
* O=C([C@H]1CNCC(=O)N1c1ccc(CCCOc2c(F)ccc(F)c2F)cc1)N(Cc1ccccc1Cl)C1CC1 | 5.73
* CCC(=O)NCc1ccc(Cl)c(CN(C(=O)[C@H]2CNCC(=O)N2c2ccc(CCCOc3cccc(Cl)c3)cc2)C2CC2)c1 | 5.84
* COCCc1ccc(Cl)c(CN(C(=O)[C@H]2CNCC(=O)N2c2ccc(OCCCOCc3ccccc3)cc2)C2CC2)c1 | 5.32
* CNC(=O)CCc1ccc(Cl)c(CN(C(=O)[C@H]2CNCC(=O)N2c2ccc(OCCCOCc3ccccc3)cc2)C2CC2)c1 | 4.62
* COCCCc1cc(CN(C(=O)[C@H]2CNCC(=O)N2c2cnc(OCCCOCc3ccccc3OC)nc2)C2CC2)c(Cl)cn1 | 2.43
* O=C([C@H]1CNCC(=O)N1c1ccc(CCCOc2cccc(Cl)c2)cc1)N(Cc1cccc(Cl)c1Cl)C1CC1 | 6.49
* COc1ccccc1COCCCOc1ncc(N2C(=O)CNC[C@@H]2C(=O)NCc2ccccc2)cn1 | 1.61

Batch: logP for all items listed.
1. COc1ccccc1COCCCOc1ncc(N2C(=O)CNC[C@@H]2C(=O)N(Cc2cc(CNC(=O)C3CC3)ccc2Cl)C2CC2)cn1
2. COc1cccc(CN(C(=O)[C@H]2CNCC(=O)N2c2ccc(OCCOc3c(Cl)cc(C)cc3Cl)cc2)C2CC2)c1C
3. COCCCc1cc(CN(C(=O)[C@H]2CNCC(=O)N2c2ccc(COC(=O)c3ccccc3)cc2)C2CC2)c(Cl)c[n+]1[O-]
4. CNC(=O)CCc1ccc(Cl)c(CN(C(=O)[C@H]2CNCC(=O)N2c2ccc(CCCOc3cccc(Cl)c3)cc2)C2CC2)c1

Output line:
1: 2.86; 2: 5.49; 3: 4.33; 4: 5.42

====

- method_description: physchem
- experimental_conditions: octanol/buffer
// returns F unless logP is strictly below 5, in which case T

- O=C([C@H]1CNCC(=O)N1c1ccc(CCCOc2cccc(Cl)c2)cc1)N(Cc1cc(CCNC2CC2)ccc1Cl)C1CC1: F

Input line: logP strictly < 5 for this molecule? COc1ccccc1COCCCOc1ccc(N2C(=O)CNC[C@@H]2C(=O)NCc2ccccc2)cc1
Output line: T

Input line: logP strictly < 5 for this molecule? CNCc1ccc(Cl)c(CN(C(=O)[C@H]2CNCC(=O)N2c2ccc(COC(=O)c3ccccc3)cc2)C2CC2)c1
Output line: T

Input line: logP strictly < 5 for this molecule? COC(=O)NCc1ccc(Cl)c(CN(C(=O)[C@H]2CNCC(=O)N2c2cnc(OCCCOCc3ccccc3OC)nc2)C2CC2)c1
Output line: T

Input line: logP strictly < 5 for this molecule? CN(Cc1ccccc1Cl)C(=O)[C@H]1CNCC(=O)N1c1ccc(CCCOc2cccc(Cl)c2)cc1
Output line: F

Input line: logP strictly < 5 for this molecule? Cc1cc(Cl)c(OCCOc2ccc(N3C(=O)CNC[C@@H]3C(=O)N(C)CCCc3ccccc3)cn2)c(Cl)c1
Output line: T

====

- method_description: physchem
- experimental_conditions: octanol/buffer
parameter_measured: logP
Numbers only.

Sample records with logP:
* Cc1cc(Cl)c(OCCOc2ccc(N3C(=O)CNC[C@@H]3C(=O)N(Cc3cccc(Cl)c3Cl)C3CC3)cn2)c(Cl)c1 | 5.59
* Cc1c(F)cccc1Cc1cc2c(cc1O)c(C(=O)N1CCNCC1)c(Cc1cccc(F)c1C)n2-c1ccccc1 | 7.78
* Cc1cc(Cl)c(OCCOc2ccc(N3C(=O)CNC[C@@H]3C(=O)N(Cc3cc(CNC4CC4)ccc3Cl)C3CC3)cc2)c(Cl)c1 | 6.3
* COC(=O)NCCc1ccc(Cl)c(CN(C(=O)[C@H]2CNCC(=O)N2c2ccc(COC(=O)c3ccccc3)cc2)C2CC2)c1 | 4.57
* CNCCc1ccc(Cl)c(CN(C(=O)[C@H]2CNCC(=O)N2c2ccc(COC(=O)c3ccccc3)cc2)C2CC2)c1 | 4.64

Batch: logP for all items listed.
1. CNC(=O)OCCc1ccc(Cl)c(CN(C(=O)[C@H]2CNCC(=O)N2c2ccc(COC(=O)c3ccccc3)cc2)C2CC2)c1
2. CCNC(=O)Cc1ccc(Cl)c(CN(C(=O)[C@H]2CNCC(=O)N2c2ccc(CCCOc3c(F)ccc(F)c3F)cc2)C2CC2)c1

Output line:
1: 4.57; 2: 5.49

Batch: logP for all items listed.
1. COC(=O)NCCc1ccc(Cl)c(CN(C(=O)[C@H]2CNCC(=O)N2c2ccc(CCCOc3cccc(Cl)c3)cc2)C2CC2)c1
2. COc1ccccc1COCCCOc1ncc(N2C(=O)CNC[C@@H]2C(=O)N(Cc2ccnc(C)c2OC)C2CC2)cn1
3. COc1ccccc1COCCCOc1ccc(N2C(=O)CNC[C@@H]2C(=O)N(Cc2cc(CCNCC(F)F)ccc2Cl)C2CC2)cc1
4. CCNCCc1ccc(Cl)c(CN(C(=O)[C@H]2CNCC(=O)N2c2ccc(OCCOc3c(Cl)cc(C)cc3Cl)nc2)C2CC2)c1
5. O=C(OCc1ccc(N2C(=O)CNC[C@@H]2C(=O)NCc2ccccc2Cl)cc1)c1ccccc1
6. CCC(=O)NCc1ccc(Cl)c(CN(C(=O)[C@H]2CNCC(=O)N2c2ccc(OCCCOCc3ccccc3)cc2)C2CC2)c1
7. COc1ccccc1COCCCOc1ncc(N2C(=O)CNC[C@@H]2C(=O)N(Cc2cc(CNCC(F)F)ccc2Cl)C2CC2)cn1
8. COc1c(CN(C(=O)[C@H]2CNCC(=O)N2c2ccc(COC(=O)c3ccccc3)cc2)C2CC2)ccnc1C

Output line:
5.74
1.44
5.38
5.25
3.88
5.04
3.28
3.12

====

- method_description: physchem
- experimental_conditions: octanol/buffer
// returns no (0) unless logP is strictly below 5, in which case yes (1)

Past entries and their recorded results:
• COCCCc1cc(CN(C(=O)[C@H]2CNCC(=O)N2c2ccc(OCCOc3c(Cl)cc(C)cc3Cl)cc2)C2CC2)c(Cl)cn1 = no (0)
• CC(=O)NCCc1ccc(Cl)c(CN(C(=O)[C@H]2CNCC(=O)N2c2ccc(OCCOc3c(Cl)cc(C)cc3Cl)nc2)C2CC2)c1 = yes (1)
• Cc1cc(Cl)c(OCCOc2ccc(N3C(=O)CNC[C@@H]3C(=O)N(Cc3cc(CCNCC(F)F)ccc3Cl)C3CC3)cn2)c(Cl)c1 = no (0)
• COC(=O)NCc1ccc(Cl)c(CN(C(=O)[C@H]2CNCC(=O)N2c2ccc(CCCOc3c(F)ccc(F)c3F)cc2)C2CC2)c1 = no (0)
• Cc1cc(Cl)c(OCCOc2ccc(N3C(=O)CNC[C@@H]3C(=O)N(Cc3cc(CNC(=O)C4CC4)ccc3Cl)C3CC3)cn2)c(Cl)c1 = yes (1)

Input line: logP strictly < 5 for this compound? Cc1ccc(F)cc1Oc1c(C(=O)N2CCNCC2)c2ccccc2n1[C@H]1C=CCCC1
Output line: no (0)

Input line: logP strictly < 5 for this compound? COc1cccc(CN(C(=O)[C@H]2CNCC(=O)N2c2ccc(OCCOc3c(Cl)cc(C)cc3Cl)nc2)C2CC2)c1C
Output line: yes (1)
